Assignment: determine reported pEC50 for the given binders.
- target-desc: T1, human interleukin 13 receptor subunit alpha 2 (IL-13RA2) (human, UniProt Q14627 27-380)
- T1 construct: whole, on cells; also called IL-13Rα2; CD213A2
- T1 sequence (looked up): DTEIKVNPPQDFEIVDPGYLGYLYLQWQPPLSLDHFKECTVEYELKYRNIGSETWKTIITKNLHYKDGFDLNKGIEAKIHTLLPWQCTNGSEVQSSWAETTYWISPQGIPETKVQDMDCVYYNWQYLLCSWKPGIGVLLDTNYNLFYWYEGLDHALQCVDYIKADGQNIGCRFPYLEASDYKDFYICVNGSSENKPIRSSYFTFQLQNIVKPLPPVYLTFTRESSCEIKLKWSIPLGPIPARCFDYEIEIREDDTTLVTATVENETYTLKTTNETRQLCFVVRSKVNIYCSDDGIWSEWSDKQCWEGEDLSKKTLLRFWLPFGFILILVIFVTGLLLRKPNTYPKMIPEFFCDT
- protocol-text: FACS on A375 cells
Answers are plain numbers, as −log10 of the molar value.

57F8H3F1 H1L3 hIgG1 (antibody, V domains shown, humanized, hIgG1) VH: QVQLVQSGAEVKKPGASVKVSCKASGYTFTNYWMNWVRQAPGQGLEWMGRIDAYETETHYNQKFRDRVTMTRDTSTSTVYMELSSLRSEDTAVYYCARGYGHYYGVDYWGQGTLVTVSS VL: DIQLTQSPSSLSASVGDRVTITCRASENVGNFGISFVNWFQQKPGKAPKLLIYAASNLGSGDPARFSGSGSGTDFTLTISSLQPEDFATYFCQQSKGVPWTFGGGTKVEIK :: 9.09
57F8H3F1 H2L1 hIgG1 (antibody, V domains shown, humanized, hIgG1) VH: QVQLVQSGAEVVKPGASVKVSCKASGYTFTNYWMNWVRQAPGQGLEWIGRIDAYETETHYNQKFRDRVTMTVDTSTSTVYMELSSLRSEDTAVYYCARGYGHYYGVDYWGQGTLVTVSS VL: DIQMTQSPSSLSASVGDRVTITCRASENVGNFGISFVNWYQQKPGKAPKLLIYAASNLGSGVPSRFSGSGSGTDFTLTISSLQPEDFATYYCQQSKGVPWTFGQGTKVEIK :: 9.42

Consider the record given below.
Prompt line: Item under review: 57F8H3F1 H3L2 hIgG1 (antibody, V domains shown, humanized, hIgG1) VH: QVQLVQSGAEVVKPGASVKLSCKASGYTFTNYWMNWVKQAPGQGLEWIGRIDAYETETHYNQKFRDRATLTVDKSTSTVYMELSSLRSEDTAVYYCARGYGHYYGVDYWGQGTLVTVSS VL: DIQMTQSPSSLSASVGDRVTITCRASENVGNFGISFVNWFQQKPGKAPKLLIYAASNLGSGDPSRFSGSGSGTDFTLTISSLQPEDFATYFCQQSKGVPWTFGQGTKVEIK . Reported pEC50?
Response line: 8.90
